The values you see were collected from paper PMC10940605.

Tested on: HL-60(TB)
Assay: NCI-60 SRB screen
Assay type: cell-based
Conditions: Homo sapiens, 10^–5 Molar, read-out: Percent growth inhibition
I'd be grateful if you could share measured inhibition at 10 µM for these entries.
Give just the number in %; leave the unit off.

Problem: Any idea what its inhibition at 10 µM is? The molecule is CCn1cc(C(=O)NN=Cc2ccc(Br)cc2)c(=O)c2cc(F)c(N3CCNC(C)C3)c(F)c21 (centres unmarked)
Result: 51.3

Problem: Any idea what its inhibition at 10 µM is? The molecule is CCn1cc(C(=O)NN=Cc2cccc(F)c2)c(=O)c2cc(F)c(N3CCNC(C)C3)c(F)c21 (centres unmarked)
Result: 34.5

Problem: Any idea what its inhibition at 10 µM is? The molecule is CCn1cc(C(=O)NN=Cc2ccccc2)c(=O)c2cc(F)c(N3CCNC(C)C3)c(F)c21 (centres unmarked)
Result: 81.9

Problem: Any idea what its inhibition at 10 µM is? The molecule is CCn1cc(C(=O)NN=Cc2cccnc2)c(=O)c2cc(F)c(N3CCNC(C)C3)c(F)c21 (centres unmarked)
Result: 30.5

Problem: Any idea what its inhibition at 10 µM is? The molecule is CCn1cc(C(=O)O)c(=O)c2cc(F)c(N3CCN(C(=O)c4ccc([N+](=O)[O-])cc4)C(C)C3)c(F)c21 (centres unmarked)
Result: 24.7

====

I'd be grateful if you could share measured inhibition at 10 µM for these entries.
Test system: OVCAR-4
Test: NCI-60 SRB screen
Format: cell-based
Conditions: Homo sapiens; OVCAR-4, 10^–5 Molar; read-out: Percent growth inhibition
Give just the number in %; leave the unit off.

Problem: Any idea what its inhibition at 10 µM is? The compound is CCn1cc(C(=O)O)c(=O)c2cc(F)c(N3CCN(CC(=O)Nc4ccc(Cl)cc4)C(C)C3)c(F)c21 (stereo not shown) [Compound 5b]
Result: 22.2

Problem: Any idea what its inhibition at 10 µM is? The compound is CCn1cc(C(=O)O)c(=O)c2cc(F)c(N3CCN(CC(=O)Nc4ccccc4)C(C)C3)c(F)c21 (stereo not shown) [Compound 5a]
Result: 17.6

Problem: Any idea what its inhibition at 10 µM is? The compound is CCn1cc(C(=O)O)c(=O)c2cc(F)c(N3CCN(C(=O)c4ccccc4)C(C)C3)c(F)c21 (stereo not shown) [Compound 7a]
Result: 20.5

Problem: Any idea what its inhibition at 10 µM is? The compound is CCn1cc(C(=O)O)c(=O)c2cc(F)c(N3CCN(C(=O)c4ccc([N+](=O)[O-])cc4)C(C)C3)c(F)c21 (stereo not shown) [Compound 7d]
Result: 8.82

====

System: DU-145
Test: NCI-60 SRB screen
Type: cell-based
Details: Homo sapiens; DU-145, 10^–5 Molar; read-out: Percent growth inhibition
I'd be grateful if you could share measured inhibition at 10 µM for these entries.
Give just the number in %; leave the unit off.

Problem: Any idea what its inhibition at 10 µM is? The molecule is CCn1cc(C(=O)NN=Cc2ccccc2)c(=O)c2cc(F)c(N3CCNC(C)C3)c(F)c21 (centres unmarked) [Compound 3a]
Result: 188

Problem: Any idea what its inhibition at 10 µM is? The molecule is CCn1cc(C(=O)NN=Cc2ccc(Br)cc2)c(=O)c2cc(F)c(N3CCNC(C)C3)c(F)c21 (centres unmarked) [Compound 3c]
Result: 68.6

Problem: Any idea what its inhibition at 10 µM is? The molecule is CCn1cc(C(=O)NN=Cc2cccs2)c(=O)c2cc(F)c(N3CCNC(C)C3)c(F)c21 (centres unmarked) [Compound 3e]
Result: 51.7

Problem: Any idea what its inhibition at 10 µM is? The molecule is CCn1cc(C(=O)NN=Cc2cccc(F)c2)c(=O)c2cc(F)c(N3CCNC(C)C3)c(F)c21 (centres unmarked) [Compound 3b]
Result: 188

Problem: Any idea what its inhibition at 10 µM is? The molecule is CCn1cc(C(=O)NN=Cc2cccnc2)c(=O)c2cc(F)c(N3CCNC(C)C3)c(F)c21 (centres unmarked) [Compound 3d]
Result: 57.5

====

I'd be grateful if you could share measured inhibition at 10 µM for these entries.
Test system: melanoma SK-MEL-5
Test: NCI-60 SRB screen
Assay type: cell-based
Settings: Homo sapiens; SK-MEL-5, 10^–5 Molar; read-out: Percent growth inhibition
Procedure: All newly synthesized compounds were selected and screened for anticancer activity against 60 human cancer cell lines representing 9 types of tumors including leukemia, melanoma, lung, colon, CNS, ovarian, renal, prostate, and breast cancers at the National Cancer Institute (NCI), Bethesda, USA. Screening was performed utilizing a single dose (10^−5 M concentration) and cells were incubated for 48 h. The end point was determined using sulforhodamine B (SRB) dye. […]

Problem: Any idea what its inhibition at 10 µM is? The compound is CCn1cc(C(=O)O)c(=O)c2cc(F)c(N3CCN(CC(=O)Nc4ccc(S(=O)(=O)Nc5nccc(C)n5)cc4)C(C)C3)c(F)c21 (stereo not shown) [Compound 5f]
Result: 193%

Problem: Any idea what its inhibition at 10 µM is? The compound is CCn1cc(C(=O)O)c(=O)c2cc(F)c(N3CCN(CC(=O)Nc4ccc(Cl)cc4)C(C)C3)c(F)c21 (stereo not shown) [Compound 5b]
Result: 16.1%

Problem: Any idea what its inhibition at 10 µM is? The compound is CCn1cc(C(=O)O)c(=O)c2cc(F)c(N3CCN(C(=O)c4ccc([N+](=O)[O-])cc4)C(C)C3)c(F)c21 (stereo not shown) [Compound 7d]
Result: 0.86%

Problem: Any idea what its inhibition at 10 µM is? The compound is CCn1cc(C(=O)NN=Cc2cccc(F)c2)c(=O)c2cc(F)c(N3CCNC(C)C3)c(F)c21 (stereo not shown) [Compound 3b]
Result: 47.4%

Problem: Any idea what its inhibition at 10 µM is? The compound is CCn1cc(C(=O)NN=Cc2cccs2)c(=O)c2cc(F)c(N3CCNC(C)C3)c(F)c21 (stereo not shown) [Compound 3e]
Result: 30.2%

Problem: Any idea what its inhibition at 10 µM is? The compound is CCn1cc(C(=O)NN=Cc2ccccc2)c(=O)c2cc(F)c(N3CCNC(C)C3)c(F)c21 (stereo not shown) [Compound 3a]
Result: 88.1%

Problem: Any idea what its inhibition at 10 µM is? The compound is CCn1cc(C(=O)NN=Cc2ccc(Br)cc2)c(=O)c2cc(F)c(N3CCNC(C)C3)c(F)c21 (stereo not shown) [Compound 3c]
Result: 17.6%

====

Tested on: OVCAR-4
Assay: NCI-60 SRB screen
Assay type: cell-based
Details: Homo sapiens; OVCAR-4, 10^–5 Molar; read-out: Percent growth inhibition
measurement type: inhibition at 10 µM (%)
Give just the number in %; leave the unit off.

Problem: Value wanted: inhibition at 10 µM (OVCAR-4) of entry CCn1cc(C(=O)NN=Cc2ccccc2)c(=O)c2cc(F)c(N3CCNC(C)C3)c(F)c21 (stereo not shown)
Result: 29.3

Problem: Value wanted: inhibition at 10 µM (OVCAR-4) of entry CCn1cc(C(=O)O)c(=O)c2cc(F)c(N3CCN(C(=O)c4ccc(Cl)cc4)C(C)C3)c(F)c21 (stereo not shown)
Result: 18.9

Problem: Value wanted: inhibition at 10 µM (OVCAR-4) of entry CCn1cc(C(=O)NN=Cc2ccc(Br)cc2)c(=O)c2cc(F)c(N3CCNC(C)C3)c(F)c21 (stereo not shown)
Result: 18.3

Problem: Value wanted: inhibition at 10 µM (OVCAR-4) of entry CCn1cc(C(=O)NN=Cc2cccc(F)c2)c(=O)c2cc(F)c(N3CCNC(C)C3)c(F)c21 (stereo not shown)
Result: 76.2

====

System: OVCAR-4
Assay: NCI-60 SRB screen
Format: cell-based
Settings: Homo sapiens; OVCAR-4, 10^–5 Molar; read-out: Percent growth inhibition
Please mark Condition met if the recorded inhibition at 10 µM is equal to or greater than 20%, and Condition not met if it falls below.

Problem: # check: inhibition at 10 µM of CCn1cc(C(=O)NN=Cc2cccs2)c(=O)c2cc(F)c(N3CCNC(C)C3)c(F)c21 (centres unmarked) [Compound 3e] is greater than or equal to 20%
Result: Condition met

Problem: # check: inhibition at 10 µM of CCn1cc(C(=O)O)c(=O)c2cc(F)c(N3CCN(CC(=O)Nc4ccc(S(N)(=O)=O)cc4)C(C)C3)c(F)c21 (centres unmarked) [Compound 5d] is greater than or equal to 20%
Result: Condition not met

Problem: # check: inhibition at 10 µM of CCn1cc(C(=O)NN=Cc2cccnc2)c(=O)c2cc(F)c(N3CCNC(C)C3)c(F)c21 (centres unmarked) [Compound 3d] is greater than or equal to 20%
Result: Condition met

Problem: # check: inhibition at 10 µM of CCn1cc(C(=O)O)c(=O)c2cc(F)c(N3CCN(C(=O)c4ccc(Br)cc4)C(C)C3)c(F)c21 (centres unmarked) [Compound 7b] is greater than or equal to 20%
Result: Condition not met

Problem: # check: inhibition at 10 µM of CCn1cc(C(=O)O)c(=O)c2cc(F)c(N3CCN(CC(=O)Nc4ccc(OC)cc4)C(C)C3)c(F)c21 (centres unmarked) [Compound 5c] is greater than or equal to 20%
Result: Condition not met
